# target.or.system: KirBac1.1 (Burkholderia pseudomallei)
# Sequence (P83698 1-333): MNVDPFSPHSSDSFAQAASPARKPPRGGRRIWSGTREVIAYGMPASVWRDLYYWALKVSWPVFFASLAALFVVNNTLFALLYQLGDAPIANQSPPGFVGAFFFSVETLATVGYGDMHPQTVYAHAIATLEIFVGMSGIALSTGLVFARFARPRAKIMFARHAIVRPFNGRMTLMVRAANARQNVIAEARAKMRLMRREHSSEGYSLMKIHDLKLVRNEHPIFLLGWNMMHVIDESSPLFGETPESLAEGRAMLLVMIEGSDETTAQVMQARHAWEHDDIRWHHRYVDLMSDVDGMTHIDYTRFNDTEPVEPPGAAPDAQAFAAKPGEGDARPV
# protocol.text: biochemical
observed.property: IC50 (µM)
Just the number in µM, nothing appended.

Measured IC50 of NCCCNCCCCNCCCN [spermine] : 800

Sourced from paper PMC2654083
